- Test system: Enterococcus faecium ATCC 700221 (VRE)
- assay.explanation: Broth microdilution MIC, E. faecium ATCC 700221 (VRE)
- Type: cell-based
- condition.info: Enterococcus faecium; broth microdilution, 37° C., 20 hours; read-out: MIC E. faecium ATCC 700221 (VRE)
metric.name: MIC

molecule="Cn1ncc2nc(NCc3cc(Cl)c(Cl)cn3)[nH]c(=O)c21.O=C(O)C(F)(F)F [Compound 36]" metric_name=MIC measured="> 64 µg/mL"
molecule="Cn1ncc2nc(NCc3cncs3)[nH]c(=O)c21 [Compound 20]" metric_name=MIC measured="> 64 µg/mL"
molecule="Cl.O=C(O)c1ccc(OCCn2ncc3nc(NCc4ccc(Cl)c(Cl)c4)[nH]c(=O)c32)cn1 [Compound 175]" metric_name=MIC measured="> 64 µg/mL"
molecule="Cn1ncc2nc(NCc3cscn3)[nH]c(=O)c21 [Compound 15]" metric_name=MIC measured="> 64 µg/mL"
molecule="CNC(=N)NCCn1ncc2nc(NCc3ccc(Cl)c(Cl)c3)[nH]c(=O)c21.Cl [Compound 294]" metric_name=MIC measured="64 µg/mL"
molecule="CC(C(=O)O)n1ncc2nc(NCc3ccc(Cl)c(Cl)c3)[nH]c(=O)c21 (stereo not shown) [Compound 226]" metric_name=MIC measured="64 µg/mL"
molecule="O=c1[nH]c(NCc2ccc(Cl)c(Cl)c2)nc2cnn(Cc3ncco3)c12 [Compound 144]" metric_name=MIC measured="2 µg/mL"
molecule="COC(=O)COCCOCCn1ncc2nc(NCc3ccc(Cl)c(Cl)c3)[nH]c(=O)c21 [Compound 186]" metric_name=MIC measured="4 µg/mL"
molecule="O=C(O)C(CCCn1ncc2nc(NCc3ccc(Cl)c(Cl)c3)[nH]c(=O)c21)c1ccccc1 (stereo not shown) [Compound 201]" metric_name=MIC measured="16 µg/mL"
molecule="CC(C)(C)NS(=O)(=O)CCn1ncc2nc(NCc3ccc(Cl)c(Cl)c3)[nH]c(=O)c21 [Compound 238]" metric_name=MIC measured="2 µg/mL"
molecule="Cn1nc(C(=O)O)c2nc(NCc3ccc(Cl)c(Cl)c3)[nH]c(=O)c21 [Compound 41]" metric_name=MIC measured="> 64 µg/mL"
molecule="O=c1[nH]c(NCc2ccc(Cl)c(Cl)c2)nc2cnn(CC3CCOC3)c12 (stereo not shown) [Compound 120]" metric_name=MIC measured="2 µg/mL"
molecule="Cn1nc(CCO)c2nc(NCc3ccc(Cl)c(Cl)c3)[nH]c(=O)c21 [Compound 48]" metric_name=MIC measured="8 µg/mL"
